Tested target: His tagged ERK2 (Homo sapiens)
Sequence (P28482 whole entry): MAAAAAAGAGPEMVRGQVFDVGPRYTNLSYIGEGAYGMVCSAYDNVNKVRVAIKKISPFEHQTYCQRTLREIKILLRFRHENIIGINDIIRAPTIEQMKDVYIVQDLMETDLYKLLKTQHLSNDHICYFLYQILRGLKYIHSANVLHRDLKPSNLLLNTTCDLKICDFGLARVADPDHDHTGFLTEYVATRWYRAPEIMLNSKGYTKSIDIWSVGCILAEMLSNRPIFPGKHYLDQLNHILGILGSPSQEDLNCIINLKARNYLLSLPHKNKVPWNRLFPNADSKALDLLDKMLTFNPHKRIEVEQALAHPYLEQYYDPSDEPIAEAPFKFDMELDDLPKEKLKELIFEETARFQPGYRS
Assay method text: Extracellular signal Regulated Kinase 2 inhibition assay (ERK2), radioactivity-based
Format: biochemical
Test settings: 10 μM compound; NA = not active
Quantity: inhibition at 10 µM (%)
Answer in %, number only, no unit symbol.

CC(=O)O[C@H]1CC(n2c3ccccc3c3c4c(c5c6ccccc6[nH]c5c32)C(=O)NC4=O)[C@H](O)[C@@H]1O (mixture of isomers) [NAD160]    23.3
N[C@H]1C=CC(n2c3ccccc3c3c4c(c5c6ccccc6[nH]c5c32)C(=O)NC4=O)C1 (mixture of isomers) [NAD040]    97.8

O=C1NC(=O)c2c1c1c3ccccc3[nH]c1c1c2c2ccccc2n1C1C=C[C@H](Cl)CC1 (mixture of isomers) [NAD085] yielded inhibition at 10 µM of 57.2
